The reported numbers originate from patent US20100234377A1.

test: Mouse microsomal metabolism assay; assay type: in vitro ADME; settings: liver microsomes; mouse hepatic microsomes, 37° C., phosphate buffer pH 7.4, NADPH regenerating system; read-out: Mouse t½
For each of the molecules below, state its half-life.

**Q:** Data request, read-out half-life, for O=C(Nc1ccc(F)cc1)N1CCN(Cc2cccc3c2OC(F)(F)O3)CC1 [XXIX]
**A:** 12.1 min

**Q:** I'd like to know its half-life. The molecule in question is O=C(Nc1ccc(N2CCOCC2)nc1)N1CCN(Cc2cc(F)cc(F)c2)CC1 [XXVIII]
**A:** 15.5 min

**Q:** What does the record list as half-life for O=C(Nc1ccc(F)cc1)N1CCN(Cc2cccc(F)c2)CC1 [XXX] ?
**A:** 10.6 min

**Q:** Using the record for O=C(Nc1ccc(N2CCOCC2)nc1)N1CCN(Cc2cccc(F)c2)CC1 [XXIV] , report its half-life.
**A:** 31.4 min

**Q:** Which half-life value belongs to O=C(Nc1ccc(F)cc1)N1CCN(Cc2ccccc2O)CC1 [XXVI] ?
**A:** 21.9 min

**Q:** Recorded half-life of NC(=O)c1ccc(NC(=O)N2CCN(C(=O)c3cccc(F)c3)CC2)cc1 [Compound 105] , please.
**A:** > 60 min

**Q:** Entry O=C(Nc1ccc(Cl)nc1)N1CCN(C(=O)c2cccc(F)c2)CC1 [Compound 63] : reported half-life = ?
**A:** > 60 min

**Q:** Any idea what its half-life is? The molecule is O=C(Nc1ccc(N2CCNCC2)c(F)c1)N1CCN(Cc2cccc(F)n2)CC1 [XXVII]
**A:** 20.9 min

**Q:** Param item = CC(C)NC(=O)N1CCN(c2ccc(NC(=O)N3CCN(C(=O)c4cccc(F)c4)CC3)cc2F)CC1 [Compound 52] ; retrieve measured half-life.
**A:** > 60 min

---

molecular target: human Prostaglandin D Synthase (GST2) (Homo sapiens); construct: the open reading frame of human Prostaglandin D Synthase was amplified from cDNA; made in house; host or cells: E. coli TOP10F'; experiment: Homogeneous biochemical assay of human Prostaglandin D Synthase (GST2) based on its glutathion-S-transferase activity (GSH conjugation to monochlorobimane, fluorescence); conditions: given beside the compound name in Examples 1 to 167; read-out: Potency Range (GST2 IC50)
What IC50 was measured for each of the following?

**Q:** May I ask what IC50 has been recorded for O=C(Nc1ccc(-n2cccn2)c(F)c1)N1CCN(C(=O)c2cccc(F)c2)CC1 [Compound 143] ?
**A:** 101 to 1000 nM

**Q:** Record request: IC50 value, item Nc1ccc2nc(NC(=O)N3CCN(C(=O)c4cccc(F)c4)CC3)sc2c1 [Compound 136]
**A:** 11 to 100 nM

**Q:** Which measured IC50 value corresponds to CC(C)C(=O)Nc1ccc(NC(=O)N2CCN(C(=O)c3cccc(F)c3)CC2)cc1 [Compound 121] ?
**A:** 101 to 1000 nM

**Q:** # IC50 lookup, item O=C(Nc1nc(-c2ccncc2)cs1)N1CCN(C(=O)c2cccc(F)c2)CC1 [Compound 75]
**A:** 101 to 1000 nM

---

target: human Prostaglandin D Synthase (GST2) (Homo sapiens, UniProt O60760); construct: the open reading frame of human Prostaglandin D Synthase was amplified from cDNA; made in house; host or cells: E. coli TOP10F'; assay: Homogeneous biochemical assay of human Prostaglandin D Synthase (GST2) based on its glutathion-S-transferase activity (GSH conjugation to monochlorobimane, fluorescence); conditions: given beside the compound name in Examples 1 to 167; read-out: Potency Range (GST2 IC50)
Sequence (O60760 whole entry): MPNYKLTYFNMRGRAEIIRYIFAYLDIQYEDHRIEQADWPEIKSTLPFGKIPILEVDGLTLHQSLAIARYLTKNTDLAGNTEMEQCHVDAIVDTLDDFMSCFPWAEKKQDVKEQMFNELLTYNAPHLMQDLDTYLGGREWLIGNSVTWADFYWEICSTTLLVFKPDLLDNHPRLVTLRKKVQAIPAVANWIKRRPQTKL
value.type: IC50

**Q:** Hi! What's the reported IC50 for O=C(Nc1cccc([N+](=O)[O-])c1)N1CCN(C(=O)c2cccc(F)c2)CC1 [Compound 36] on human Prostaglandin D Synthase (GST2) (Homo sapiens, UniProt O60760)?
**A:** 101 to 1000 nM

**Q:** Reported IC50 for human Prostaglandin D Synthase (GST2) (Homo sapiens, UniProt O60760), given O=C(Nc1ccc(C(=O)N2CCOCC2)c(F)c1)N1CCN(C(=O)c2cccc(F)c2)CC1 [Compound 97] ?
**A:** 101 to 1000 nM

**Q:** API: value(readout=IC50, system=human Prostaglandin D Synthase (GST2) (Homo sapiens, UniProt O60760)) for record O=C(Nc1ccc(NC(=O)N2CCN(C(=O)c3cc(F)ccc3F)CC2)cc1)c1cccc[n+]1[O-] [Compound 118]
**A:** 11 to 100 nM

**Q:** Find the measured IC50: item O=C(Nc1cccc(Nc2ccccc2)c1)N1CCN(C(=O)c2cccc(F)c2)CC1 [Compound 166] , target or system human Prostaglandin D Synthase (GST2) (Homo sapiens, UniProt O60760).
**A:** 101 to 1000 nM
